# Test system: TH17 cells differentiated in-vitro
# Test Name: TH17 differentiation assay: inhibition of IL-17 secretion
# Type: cell-based
# Condition Description: Homo sapiens; 1 μM; IL-17 secretion
Value Kind: inhibition at 1 µM (%)
Reply numerically in %, unit not repeated.

[[record]]
compound = "Cn1ncc2ccc(-c3ccc(C(=O)N4CCN(C(=O)C5(N)CC5)CC4)cc3)cc21 [compound 5]"
target = "TH17 cells differentiated in-vitro"
value_kind = "inhibition at 1 µM"
reported_measurement = 74

[[record]]
compound = "C[C@H]1CN(C(=O)c2ccc(-c3nc4ccc(Cl)cc4o3)cc2)CCN1C(=O)C1(O)CC1 [compound 11]"
target = "TH17 cells differentiated in-vitro"
value_kind = "inhibition at 1 µM"
reported_measurement = 67

[[record]]
compound = "C[C@@H]1CN(C(=O)c2ccc(-c3nc4ccc(F)cc4o3)cc2)CCN1C(=O)C1(O)CC1 [compound 7]"
target = "TH17 cells differentiated in-vitro"
value_kind = "inhibition at 1 µM"
reported_measurement = 66


Measured inhibition at 1 µM, Cn1cnc2cc(-c3ccc(C(=O)N4CCN(C(=O)C5(O)CC5)CC4)c(F)c3)ccc21 [compound 4] : 85

---

# System: TH17 cells differentiated in-vitro
# Test Name: TH17 differentiation assay: inhibition of IL-17 secretion
# Assay type: cell-based
# Condition Description: Homo sapiens; 1 μM; IL-17 secretion
Below, each entry is listed with its recorded inhibition at 1 µM.
Give the number; % is assumed, so skip it.

// known answers, use as guide
[[record]]
chemical_structure = "O=C(c1ccc(-c2nc3ccc(F)cc3o2)cc1F)N1CCN(C(=O)C2(O)CC2)CC1"
unit_text = "%"
reported_measurement = 53

[[record]]
chemical_structure = "O=C(c1ccc(-c2nc3ccc(Cl)cc3o2)cc1)N1CCN(C(=O)C2(O)CC2)CC1"
unit_text = "%"
reported_measurement = 79


Entry `O=C(c1ccc(-c2cc(Cl)ccc2F)cc1)N1CCN(C(=O)C2(O)CC2)CC1` ; assay system TH17 cells differentiated in-vitro; inhibition at 1 µM recorded at 75

Measured inhibition at 1 µM (TH17 cells differentiated in-vitro), entry `O=C(c1ccc(-c2nc3ccc(F)cc3o2)cc1)N1CCN(C(=O)C2(O)CC2)CC1` : 46

The molecule `C[C@H]1CN(C(=O)c2ccc(-c3ccc4c(c3)ncn4C)cc2F)CCN1C(=O)C1(O)CC1` , tested on TH17 cells differentiated in-vitro, showed inhibition at 1 µM of 77

Record `Cn1cnc2cc(-c3ccc(C(=O)N4CCN(C(=O)C5(O)CC5)CC4)cc3)ccc21` has TH17 cells differentiated in-vitro inhibition at 1 µM equal to 76
